For each of the compounds below, state its concentration at 8 h.
- method: Drug level in plasma of Sprague-Dawley rat at 10 mg/kg, po administered as single dose via gavage measured at 8 hrs by LC-MS/MS analysis
- Assay type: ADME, organism-based
Write the value in µM as a bare number.

Prompt: Requested read-out: concentration at 8 h. Entry: Nc1ccc(C(=O)N[C@H]2CC/C(=C\c3cccc(Oc4ccc(C(F)(F)F)cn4)c3)CC2)cn1 (centres undefined)
Response: 8.2

Prompt: Now consider Cc1cc(C(=O)N[C@H]2CC/C(=C\c3cccc(Oc4ccc(C(F)(F)F)cn4)c3)CC2)cnc1N (centres undefined) and answer again.
Response: 5.3

Prompt: Request: Nc1ncc(C(=O)N[C@H]2CC/C(=C\c3cccc(Oc4ccc(C(F)(F)F)cn4)c3)CC2)cn1 (centres undefined)
Response: 7.3

Prompt: Could you do the same for O=C(N[C@H]1CC/C(=C\c2cccc(Oc3ccc(C(F)(F)F)cn3)c2)CC1)c1cccnc1 (centres undefined) , please?
Response: 3

====

Field: Drug metabolism. Provide a value for each of the compounds that follow.
- method: Intrinsic metabolic stability in human liver microsomes assessed as metabolic turnover rate per mg protein at 1 uM preincubated for 5 mins followed by NADPH cofactor addition and measured after 30 mins by LC-MS/MS analysis
- Format: ADME, Microsome
- condition.notes: 0.5 h
Return type: number; implicit unit nmol/min/mg.

Prompt: Drug metabolism for Nc1ncc(C(=O)NC2CCC(=Cc3cccc(Oc4ccc(C(F)(F)F)cn4)c3)CC2)cc1Cl (racemic) ?
Response: 0.06

Prompt: Same question, O=C(NC1CCC(=Cc2cccc(Oc3ccc(C(F)(F)F)cn3)c2)CC1)c1cn[nH]c1 (racemic) this time
Response: 0.04

Prompt: Try this compound next: Nc1ccc(C(=O)NC2CCC(=Cc3cccc(Oc4ccc(C(F)(F)F)cn4)c3)CC2)cn1 (racemic)
Response: 0.07

Prompt: Same for O=C(NC1CCC(=Cc2cccc(Oc3ccc(C(F)(F)F)cn3)c2)CC1)c1ccc(-n2cccn2)nc1 (racemic)
Response: 0.11

Prompt: Subsequent entry: O=C(NC1CCC(=Cc2cccc(Oc3ccc(C(F)(F)F)cn3)c2)CC1)c1cnc2[nH]ccc2c1 (racemic)
Response: 0.08

Prompt: Can you check O=C(NC1CCC(=Cc2cccc(Oc3ccc(C(F)(F)F)cn3)c2)CC1)c1cccnc1 (racemic) next?
Response: 0.06

Prompt: Now consider O=C(NC1CCC(=Cc2cccc(Oc3ccc(C(F)(F)F)cn3)c2)CC1)c1ccc(Cl)nc1 (racemic) and answer again.
Response: 0.06

Prompt: Try Nc1ncc(C(=O)NC2CCC(=Cc3cccc(Oc4ccc(C(F)(F)F)cn4)c3)CC2)cn1 (racemic) next.
Response: 0.03

Prompt: Same question, O=C(NC1CCC(=Cc2cccc(Oc3ccc(C(F)(F)F)cn3)c2)CC1)c1ccc(-n2nccn2)nc1 (racemic) this time
Response: 0.09

Prompt: And Cc1cc(C(=O)NC2CCC(=Cc3cccc(Oc4ccc(C(F)(F)F)cn4)c3)CC2)cnc1N (racemic) ?
Response: 0.09

Prompt: Item: O=C(N[C@H]1CC/C(=C\c2cccc(Oc3ccc(C(F)(F)F)cn3)c2)CC1)c1cccnc1 (centres undefined)
Response: 0.04

====

- method: Cmax in Sprague-Dawley rat at 10 mg/kg, po administered as single dose via gavage by LC-MS/MS analysis
- Type: ADME, organism-based
- Design: dose 10 mg/kg, route oral
- condition.notes: in vivo
assay.metric: Cmax
Give the value; after it, write the unit.

Prompt: What value of Cmax has been reported for the following compound? O=C(NC1CCC(=Cc2cccc(Oc3ccc(C(F)(F)F)cn3)c2)CC1)c1ccc(-n2cccn2)nc1 (racemic)
Response: 0.09 µM

Prompt: Next up: Nc1ncc(C(=O)N[C@H]2CC/C(=C\c3cccc(Oc4ccc(C(F)(F)F)cn4)c3)CC2)cn1 (stereo not given)
Response: 7.8 µM

Prompt: How about this compound: O=C(N[C@H]1CC/C(=C\c2cccc(Oc3ccc(C(F)(F)F)cn3)c2)CC1)c1cccnc1 (stereo not given)
Response: 7.2 µM

Prompt: Also Cc1cc(C(=O)N[C@H]2CC/C(=C\c3cccc(Oc4ccc(C(F)(F)F)cn4)c3)CC2)cnc1N (stereo not given) , if possible.
Response: 6.7 µM

Prompt: Same question, Nc1ccc(C(=O)N[C@H]2CC/C(=C\c3cccc(Oc4ccc(C(F)(F)F)cn4)c3)CC2)cn1 (stereo not given) this time
Response: 8.8 µM
